system: Saccharomyces cerevisiae; test: protein stability index of tFT-peptide fusion in deletion strain of DAS1 (PSI (0-1 scale)); higher = more stable (slower turnover)
QUANTITY_NAME: protein stability index
Respond numerically, and do not add a unit to the figure.

{"columns": ["RESIDUE_CODES", "protein stability index"],
 "data": [
  ["LKIERQKMNHQN", 0.682],
  ["PSLAASSWRVVG", 0.694]
]}

# input Could you share which protein stability index value was measured for PDKRNHLIKLCN ?
# output 0.583

# input Could you share which protein stability index value was measured for LKILHQKMNHQN ?
# output 0.645

---

tested on: Saccharomyces cerevisiae; experiment: protein stability index of tFT-peptide fusion (C-terminal peptide) (PSI (0-1 scale)); higher = more stable (slower turnover); conditions: genetic background: wild type; temperature: 37 C
QUANTITY_NAME: protein stability index
Respond numerically, and do not add a unit to the figure.

{"columns": ["RESIDUE_CODES", "protein stability index"],
 "data": [
  ["VCLVFVVRPCIR", 0.599],
  ["FPPHFLPLVFLS", 0.0988],
  ["FRTTGQAPPSKP", 0.72],
  ["CFVICVCLCFGR", 0.371],
  ["LFVFTYPFLSWL", 0.615]
]}

# input Could you share which protein stability index value was measured for VIGLLSYFLVYL ?
# output 0.581

# input Could you share which protein stability index value was measured for VGDVVWFGVGAG ?
# output 0.744

# input Could you share which protein stability index value was measured for YHRKAILMCTFS ?
# output 0.461

# input Could you share which protein stability index value was measured for SRSFFRRLLFCF ?
# output 0.482

# input Could you share which protein stability index value was measured for LLLLFPSPLFIR ?
# output 0.272

# input Could you share which protein stability index value was measured for RFKEKVSIIHKQ ?
# output 0.125

# input Could you share which protein stability index value was measured for MMEMMTKSNRIP ?
# output 0.639

# input Could you share which protein stability index value was measured for LVVAVLKIIMSS ?
# output 0.0596

# input Could you share which protein stability index value was measured for VFFVTSCWVFRG ?
# output 0.208

# input Could you share which protein stability index value was measured for GQRIKWGPIYLT ?
# output 0.365

# input Could you share which protein stability index value was measured for FWESHVLPYRLL ?
# output 0.465

# input Could you share which protein stability index value was measured for LFFSPRRLSPPT ?
# output 0.746

# input Could you share which protein stability index value was measured for VERKLMTIYIKI ?
# output 0.608
